Data credit: PubChem BioAssay (NCATS)

Assay: Cellular viability qHTS for adrenocortical cancer (ACC) cell line NCI-H295R (AID 1963990); also: nearly all actives have a fitted effect of over 60% in size
Settings: CellTiter-Glo ATP luminescence, 48 h; series mostly up to 46.1 µM
Records with an inconclusive call do not appear. Activity calls are given as the source filed them. Calls follow the shape of the dose curve; as a rule, active = well fitted cell-killing curve with a large enough effect; inconclusive = small, poorly fitted or top-dose-only effect; inactive = flat fitted curve, though single readings scatter.
Returns: one label drawn from active, inactive

q: Give the logged outcome of this assay for the following compound: CN[C@H]1CCc2cc(OC)c(OC)c(OC)c2-c2ccc(OC)c(=O)cc21
a: active

q: Give the logged outcome of this assay for the following compound: COc1cc(C[C@@H](CO)[C@H](CO)Cc2ccc(O)c(OC)c2)ccc1O
a: inactive

q: Give the logged outcome of this assay for the following compound: CCc1c2c(nc3ccc(O)cc13)-c1cc3c(c(=O)n1C2)COC(=O)[C@]3(O)CC
a: active

q: Give the logged outcome of this assay for the following compound: Cc1c(-c2ccc(-c3ccccc3F)cc2)nc2ccc(F)cc2c1C(=O)O
a: inactive

q: Give the logged outcome of this assay for the following compound: Cc1nc(-c2cccnc2)sc1C(=O)Nc1ccccc1-c1cn2c(CN3CCOCC3)csc2n1
a: inactive

q: Give the logged outcome of this assay for the following compound: CCCCNc1ncc2c(-c3ccc(CN4CCN(C)CC4)cc3)cn(C3CCC(O)CC3)c2n1 (stereo unspecified)
a: active

q: Give the logged outcome of this assay for the following compound: CCCN(CCC)CCc1cccc2c1CC(=O)N2
a: inactive

q: Give the logged outcome of this assay for the following compound: C[C@@H]1COCCN1c1cc(=O)n2c(n1)N(Cc1cncc(Cl)c1)[C@H](C(F)(F)F)CC2
a: inactive

q: Give the logged outcome of this assay for the following compound: COCCOc1ccc2c(c1)ncn2-c1ccc2cccc(N3CCC(N)CC3)c2n1
a: active

q: Give the logged outcome of this assay for the following compound: CCC(C(=O)NC(=O)NC(C)=O)c1ccccc1 (stereo unspecified)
a: inactive

q: Give the logged outcome of this assay for the following compound: Nc1ncnc2nc[nH]c12
a: inactive

q: Give the logged outcome of this assay for the following compound: CC1(C)O[C@@H]2C[C@H]3[C@@H]4CCC5=CC(=O)CC[C@]5(C)[C@@]4(F)[C@@H](O)C[C@]3(C)[C@]2(C(=O)CCl)O1
a: inactive

q: Give the logged outcome of this assay for the following compound: Cc1cccc(C)c1NC(=O)CN(CC(=O)O)CC(=O)O
a: inactive

q: Give the logged outcome of this assay for the following compound: Cc1cc(=O)[nH]c(=S)[nH]1
a: inactive

q: Give the logged outcome of this assay for the following compound: Cc1c(N)c(=O)n(-c2ccccc2)n1C
a: inactive

q: Give the logged outcome of this assay for the following compound: CCCCn1c(=O)n(Cc2ccccc2F)c(=O)c2[nH]c(Cc3ccc(NC(C)=O)cc3)nc21
a: inactive

q: Give the logged outcome of this assay for the following compound: C=CCc1cccc(/C=N/NC(=O)CN2CCN(Cc3ccccc3)CC2)c1O
a: active

q: Give the logged outcome of this assay for the following compound: CN(C)C/C=C/C(=O)Nc1ccc(C(=O)Nc2cccc(Nc3ncc(Cl)c(-c4c[nH]c5ccccc45)n3)c2)cc1
a: active

q: Give the logged outcome of this assay for the following compound: CC(=O)N(CC(O)CO)c1c(I)c(C(=O)NCCO)c(I)c(C(=O)NCC(O)CO)c1I (stereo unspecified)
a: inactive

q: Give the logged outcome of this assay for the following compound: CN(N=O)C(=O)N[C@@H]1[C@@H](O)[C@H](O)[C@@H](CO)O[C@@H]1O
a: inactive

q: Give the logged outcome of this assay for the following compound: Cc1nc(N)ncc1-c1nc(N2CCOCC2)c2sc(C(C)(C)O)cc2n1
a: active
